system: OVCAR-3; assay: NCI tumour cell line growth inhibition, 48 h
Calls of active or inactive are those of the source. Cut-off read from the data, not from the text of the source: active = GI50 up to about 1.1 µM and inactive = higher.
Measurement name: GI50

Solved cases (3 shown):
>>> result_value("COc1cc2c(cc1OC)C/C(=N\\O)c1cc(OC)c(OC)cc1/C=C\\2")
"3.67 µM (inactive)"
>>> result_value("CCc1c(OC(C)=O)c2c(NC3OC(COC(C)=O)C(OC(C)=O)C(OC(C)=O)C3OC(C)=O)nc(OC)nc2oc1=O (stereo not drawn)")
"> 100 µM (inactive)"
>>> result_value("O=C(Cc1csc(-c2nc(CC(=O)NNc3ccccc3)cs2)n1)NNc1ccccc1")
"> 100 µM (inactive)"

Report GI50 for CC1=NN(c2nc(N)nc(/C(C#N)=C\C3COc4ccccc4C3=O)n2)C(C)(C)C1 (stereo not drawn) 22.6 µM (inactive)

Determine from records and report GI50 for NC1=NS(=O)(=O)Nc2nc(-c3ccc([N+](=O)[O-])cc3)[nH]c21 > 100 µM (inactive)

Answer with reported GI50 of COc1ccc(OC)c2sc(N3C(=O)/C(=C/c4ccc(N(C)C)cc4)N=C3c3ccccc3)nc12 58.2 µM (inactive)

Provide GI50 value for the following compound: CSc1nc(NCc2ccccc2)c2cnn(COCCO)c2n1 57.8 µM (inactive)

State, in one line, measured GI50 of O=C(/C(=C/c1ccccc1)c1ccccc1)N1c2ccccc2CC1c1c[nH]c2ccccc12 (stereo not drawn) 3.05 µM (inactive)

Please report GI50 for the following compound: CCC(C)(O)c1cn(-c2ccc(Cl)cc2)nn1 (stereo not drawn) > 100 µM (inactive)

Look up and state reported GI50 for NC(CSSCC(N)Cc1ccccc1)Cc1ccccc1 (stereo not drawn) 33 µM (inactive)

Given CC(C)NC(=O)N(Nc1ccccc1)C(C)(C)C , respond with its GI50. > 100 µM (inactive)

Give the reported GI50 for this compound. Cc1nc2ccc(F)cc2c2c1CCN2c1ccccc1 30.5 µM (inactive)

For CCOC(=O)Cc1[nH]c(C(=O)c2ccccc2)cc1C(=O)c1ccccc1 , write its GI50. 46.3 µM (inactive)

Quickly give me recorded GI50 for Cc1nc(C)c(C(=O)NNC(=O)C[N+](C)(C)C)cc1C(=O)NNC(=O)C[N+](C)(C)C > 100 µM (inactive)

Dear colleague, please send me the reported GI50 for O=C1/C(=c2\c3ccccc3n3c(=O)c4ccccc4nc23)Nc2ccccc21 [CANDIDINE] when you can. 45.9 µM (inactive)

Specify GI50 for Cc1cc2c(cc1C)C(=O)C1(C2)Cc2c(C)ccc(C)c2C1=O (stereo not drawn) and stop. > 100 µM (inactive)

Tell me measured GI50 for CN(NC(=O)/C(=C/c1ccc(Cl)cc1)NC(=O)c1ccccc1)c1cn[nH]c(=O)c1Cl please. 87.1 µM (inactive)

Fill in GI50 for record S=C(Nc1ccc2cn[nH]c2c1)Nc1ccc2cn[nH]c2c1 > 100 µM (inactive)
